Assay: in vitro
Conditions: human
measured_quantity: CC50

| compound | measured_quantity | result |
| --- | --- | --- |
| NCC(=O)NC(CCC(=O)NC(Cc1c(Sc2cccc([N+](=O)[O-])c2)[nH]c2ccccc12)C(=O)O)(CCC(=O)NC(Cc1c(Sc2cccc([N+](=O)[O-])c2)[nH]c2ccccc12)C(=O)O)CCC(=O)NC(Cc1c(Sc2cccc([N+](=O)[O-])c2)[nH]c2ccccc12)C(=O)O (centres unmarked) | CC50 | > 100 µM |

Entry under test: CC(=O)c1ccc(Sc2[nH]c3ccccc3c2CC(NC(=O)CCC(CCC(=O)NC(Cc2c(Sc3ccc(C(C)=O)cc3)[nH]c3ccccc23)C(=O)O)(CCC(=O)NC(Cc2c(Sc3ccc(C(C)=O)cc3)[nH]c3ccccc23)C(=O)O)NC(=O)CN)C(=O)O)cc1 (centres unmarked) . Its CC50 was > 100 µM

The measurements presented in this section are drawn from paper PMC10424185.
